Tested on: KB
Experiment Summary: Cytotoxicity in human KB cells assessed as reduction in cell viability incubated for 48 hrs by MTT assay
Type: functional, cell-based
Structures can show the parent of a compound that is named as a salt.
Measured Quantity: pIC50
To interpret pIC50, take it as minus log10 of a concentration measured in moles per litre.

Asked: Form field: reported pIC50 of CC(C)=CCC/C(C)=C/Cc1c(O)cc(O)cc1CCc1ccccc1
Given back: 4.59

Asked: Form field: reported pIC50 of CC(C)=CCC[C@@]1(C)C=Cc2c(CCc3ccccc3)cc(O)cc2O1
Given back: 4.55

Asked: Form field: reported pIC50 of COC(=O)c1c(CCc2ccccc2)cc(O)c(CC=C(C)C)c1O
Given back: 5.17

Asked: Form field: reported pIC50 of C=C(C)[C@@H](O)CC/C(C)=C/Cc1c(O)cc(O)cc1CCc1ccccc1
Given back: 4.76

Asked: Form field: reported pIC50 of C=C(C)[C@H]1CC[C@@]2(C)Oc3cc(O)cc(CCc4ccccc4)c3[C@@H]1[C@H]2O
Given back: 4.42

Asked: Form field: reported pIC50 of COc1cccc2c1C(=O)c1c(O)c3c(c(O)c1C2=O)C[C@@](O)(C(=O)CO)C[C@@H]3O[C@H]1C[C@H](N)[C@H](O)[C@H](C)O1 [DOXORUBICIN HYDROCHLORIDE]
Given back: 5.49

Asked: Form field: reported pIC50 of CC(C)=CCCC(C)(O)CCc1c(O)cc(O)cc1CCc1ccccc1 (racemic)
Given back: 4.53

Asked: Form field: reported pIC50 of CC1(C)[C@@H]2c3c(CCc4ccccc4)cc(O)cc3O[C@]3(C)CC[C@H]1[C@H]23
Given back: 4.80

Asked: Form field: reported pIC50 of C=C(CCC=C(C)C)[C@H](O)Cc1c(O)cc(O)cc1CCc1ccccc1
Given back: 4.77

----------
Give measured IC50 for each item. Keep answers brief.
Tested on: MCF7
Experiment Summary: Cytotoxicity in human MCF7 cells assessed as reduction in cell viability incubated for 48 hrs by MTT assay
Type: functional, cell-based
Particulars: MCF7, 48 h
Please state the figure in µM; there is no need to write the unit.

Asked: Form field: reported IC50 of C=C(C)C(O)Cc1c(O)cc(CCc2ccccc2)c(C(=O)OC)c1O (racemic)
Given back: 37.9

Asked: Form field: reported IC50 of O=C1C=Cc2c(O)cc(CCc3ccccc3O)cc2OC1
Given back: 33.2

Asked: Form field: reported IC50 of COC(=O)c1c(CCc2ccccc2)cc(O)c(CC=C(C)C)c1O
Given back: 10.2

Asked: Form field: reported IC50 of C=C(CCC=C(C)C)[C@H](O)Cc1c(O)cc(O)cc1CCc1ccccc1
Given back: 18.7

Asked: Form field: reported IC50 of C=C(C)[C@@H](O)CC/C(C)=C/Cc1c(O)cc(O)cc1CCc1ccccc1
Given back: 28.9

----------
System: SW-620
Experiment Summary: Cytotoxicity in human SW620 cells assessed as reduction in cell viability incubated for 48 hrs by MTT assay
Type: functional, cell-based
Particulars: SW-620, 48 h
Counter-ions that a name gives are not always drawn.
Give measured IC50 for each item. Keep answers brief.
Please state the figure in µM; there is no need to write the unit.

Asked: Form field: reported IC50 of CC1(C)[C@@H]2c3c(CCc4ccccc4)cc(O)cc3O[C@]3(C)CC[C@H]1[C@H]23
Given back: 10.4

Asked: Form field: reported IC50 of O=C1C=Cc2c(O)cc(CCc3ccccc3O)cc2OC1
Given back: 13.8

Asked: Form field: reported IC50 of C=C(C)[C@@H](O)CC/C(C)=C/Cc1c(O)cc(O)cc1CCc1ccccc1
Given back: 19.7

Asked: Form field: reported IC50 of C=C(CCC=C(C)C)[C@H](O)Cc1c(O)cc(O)cc1CCc1ccccc1
Given back: 15.2

Asked: Form field: reported IC50 of CC(C)=CCC/C(C)=C/Cc1c(O)cc(O)cc1CCc1ccccc1
Given back: 25.6

Asked: Form field: reported IC50 of C=C(C)C(O)Cc1c(O)cc(CCc2ccccc2)c(C(=O)OC)c1O (racemic)
Given back: 22.2

Asked: Form field: reported IC50 of C=C(C)[C@H]1CC[C@@]2(C)Oc3cc(O)cc(CCc4ccccc4)c3[C@@H]1[C@H]2O
Given back: 21.3

Asked: Form field: reported IC50 of CC(C)=CCC[C@@]1(C)C=Cc2c(CCc3ccccc3)cc(O)cc2O1
Given back: 18.5

Asked: Form field: reported IC50 of COC(=O)c1c(CCc2ccccc2)cc(O)c(CC=C(C)C)c1O
Given back: 6.3

Asked: Form field: reported IC50 of COc1cccc2c1C(=O)c1c(O)c3c(c(O)c1C2=O)C[C@@](O)(C(=O)CO)C[C@@H]3O[C@H]1C[C@H](N)[C@H](O)[C@H](C)O1 [DOXORUBICIN HYDROCHLORIDE]
Given back: 1.2
